I'd appreciate it if you could supply UI values for the items below.
- System: Rattus norvegicus
- assay-explanation: Gastrointestinal toxicity in Norwegian rat assessed as ulcerative index at 50 mg/kg, po after 17 hrs
- Format: organism-based
- cond: in vivo
Answers are plain numbers.

Worked cases, answers included:
1. COC(=O)C1=C(C)N=C2Sc3ccccc3N2C1c1ccc(OC)cc1 (configuration not stated): 0.54
2. COC(=O)C1=C(C)NC(C)=C(C(=O)OC)C1c1ccccc1[N+](=O)[O-]: 0.54
3. COC(=O)C1=C(C)N=C2Sc3ccccc3N2C1c1ccc(Cl)cc1 (configuration not stated): 0.36
4. CCOC(=O)C1=C(C)N=C2Sc3ccccc3N2C1c1cccc([N+](=O)[O-])c1 (configuration not stated): 0.2

Hi team, please reply with UI for each item in this list.
1. COC(=O)C1=C(C)N=C2Sc3ccccc3N2C1c1ccc([N+](=O)[O-])cc1 (configuration not stated)
2. CC(C)Cc1ccc(C(C)C(=O)O)cc1 (configuration not stated)
3. COC(=O)C1=C(C)N=C2Sc3ccccc3N2C1c1ccc(O)c(OC)c1 (configuration not stated)

[0.2, 1.97, 0.2]

* * *

- System: Rattus norvegicus
- assay-explanation: Antihypertensive activity in Norwegian albino rat model of DOCA-salt-induced hypertension assessed as inhibition of systolic blood pressure at 10 mg/kg, po after 4 hrs by non-invasive tail cuff method relative to control
- Assay type: functional
Would you mind labelling by inhibition in vivo at 10 mg/kg? At or over 20% is condition met, under is condition not met.

Below, 6 compounds whose answers are already recorded.
1) COC(=O)C1=C(C)N=C2Sc3ccccc3N2C1c1ccc([N+](=O)[O-])cc1 (stereo not given): condition met
2) COC(=O)C1=C(C)NC(C)=C(C(=O)OC)C1c1ccccc1[N+](=O)[O-] [NIFEDIPINE]: condition not met
3) CCc1nc(Nc2nc3ccccc3s2)nc(C)c1C(C)=O: condition not met
4) CCOC(=O)C1=C(C)N=C2Sc3ccccc3N2C1c1cccc([N+](=O)[O-])c1 (stereo not given): condition not met
5) COC(=O)C1=C(C)N=C2Sc3ccccc3N2C1c1ccccc1O (stereo not given): condition met
6) COC(=O)C1=C(C)N=C2Sc3ccccc3N2C1c1ccc(Cl)cc1 (stereo not given): condition met

Does COC(=O)C1=C(C)N=C2Sc3ccccc3N2C1c1ccc(O)cc1 (stereo not given) have a reported inhibition in vivo at 10 mg/kg of at least 20%?
condition met

Does COC(=O)C1=C(C)N=C2Sc3ccccc3N2C1c1ccccc1Cl (stereo not given) have a reported inhibition in vivo at 10 mg/kg of at least 20%?
condition not met

Does CCOC(=O)C1=C(C)N=C2Sc3ccccc3N2C1c1ccccc1Cl (stereo not given) have a reported inhibition in vivo at 10 mg/kg of at least 20%?
condition not met

* * *

- assayed-system: Myosin light chain kinase, smooth muscle (Homo sapiens, UniProt Q15746)
- Sequence (Q15746 whole entry): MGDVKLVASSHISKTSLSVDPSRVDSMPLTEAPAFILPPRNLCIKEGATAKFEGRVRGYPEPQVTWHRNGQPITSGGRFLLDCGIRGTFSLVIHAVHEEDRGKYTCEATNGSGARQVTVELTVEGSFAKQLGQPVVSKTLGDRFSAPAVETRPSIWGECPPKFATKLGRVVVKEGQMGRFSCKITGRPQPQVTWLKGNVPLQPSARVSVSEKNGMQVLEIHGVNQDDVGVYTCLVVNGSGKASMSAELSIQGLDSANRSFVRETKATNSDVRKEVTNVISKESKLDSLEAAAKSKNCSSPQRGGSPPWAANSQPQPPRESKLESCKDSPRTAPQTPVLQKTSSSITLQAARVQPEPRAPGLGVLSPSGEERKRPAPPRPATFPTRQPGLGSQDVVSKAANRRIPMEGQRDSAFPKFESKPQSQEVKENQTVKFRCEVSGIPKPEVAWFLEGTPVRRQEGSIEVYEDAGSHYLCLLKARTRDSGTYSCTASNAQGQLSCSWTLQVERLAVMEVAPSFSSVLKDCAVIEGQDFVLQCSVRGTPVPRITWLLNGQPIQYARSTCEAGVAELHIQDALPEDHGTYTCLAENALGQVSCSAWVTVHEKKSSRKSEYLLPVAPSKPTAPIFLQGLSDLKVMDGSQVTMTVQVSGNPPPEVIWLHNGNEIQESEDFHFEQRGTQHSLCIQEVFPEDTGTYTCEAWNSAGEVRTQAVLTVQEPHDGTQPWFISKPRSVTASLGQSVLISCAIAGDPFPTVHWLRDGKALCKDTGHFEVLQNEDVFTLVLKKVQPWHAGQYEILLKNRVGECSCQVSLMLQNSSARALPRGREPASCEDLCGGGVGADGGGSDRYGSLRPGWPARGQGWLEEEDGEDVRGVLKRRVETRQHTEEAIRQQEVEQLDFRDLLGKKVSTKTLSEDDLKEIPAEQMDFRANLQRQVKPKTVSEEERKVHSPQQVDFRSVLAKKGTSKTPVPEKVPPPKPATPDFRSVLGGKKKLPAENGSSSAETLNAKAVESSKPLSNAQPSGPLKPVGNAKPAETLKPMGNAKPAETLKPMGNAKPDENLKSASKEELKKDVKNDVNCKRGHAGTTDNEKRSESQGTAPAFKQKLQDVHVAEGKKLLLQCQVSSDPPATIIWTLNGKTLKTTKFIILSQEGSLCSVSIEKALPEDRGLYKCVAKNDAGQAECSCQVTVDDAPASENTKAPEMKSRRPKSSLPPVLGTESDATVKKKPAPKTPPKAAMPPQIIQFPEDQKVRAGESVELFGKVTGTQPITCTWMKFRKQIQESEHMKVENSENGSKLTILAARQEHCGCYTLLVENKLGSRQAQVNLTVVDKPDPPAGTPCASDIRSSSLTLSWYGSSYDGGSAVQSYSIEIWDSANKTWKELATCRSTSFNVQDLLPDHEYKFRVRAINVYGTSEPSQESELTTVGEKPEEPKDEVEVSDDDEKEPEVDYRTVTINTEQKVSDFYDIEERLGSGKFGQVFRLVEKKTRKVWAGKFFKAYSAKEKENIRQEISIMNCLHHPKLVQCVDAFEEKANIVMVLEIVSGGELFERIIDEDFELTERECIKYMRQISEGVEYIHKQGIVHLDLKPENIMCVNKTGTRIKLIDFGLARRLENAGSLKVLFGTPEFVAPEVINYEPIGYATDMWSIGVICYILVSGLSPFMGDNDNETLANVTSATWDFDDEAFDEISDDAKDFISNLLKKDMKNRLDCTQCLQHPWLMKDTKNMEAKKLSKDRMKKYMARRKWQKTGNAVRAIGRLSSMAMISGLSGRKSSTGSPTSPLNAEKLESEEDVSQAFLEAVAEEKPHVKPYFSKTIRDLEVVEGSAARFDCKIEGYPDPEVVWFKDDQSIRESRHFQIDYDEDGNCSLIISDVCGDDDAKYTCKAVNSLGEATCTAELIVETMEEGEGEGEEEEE
- assay-explanation: Inhibition of MLCK (unknown origin) incubated for 15 mins using [gamma-32P]-ATP by scintillation counting method
- cond: read-out: pIC50 (converted)
Parameter class (string): assigned from measured IC50. Ranges: bin A = under 3 mM, bin B = from 3 mM up to 20 mM, bin C = 20 mM and over

1. COC(=O)C1=C(C)N=C2Sc3ccccc3N2C1c1ccc(O)cc1 (stereo not given): bin C
2. COC(=O)C1=C(C)N=C2Sc3ccccc3N2C1c1ccc(O)c(OC)c1 (stereo not given): bin C
3. CCOC(=O)C1=C(C)NC(OC)N(CC(=O)c2ccccc2)C1c1ccc(O)cc1 (stereo not given): bin A
4. CCOC(=O)C1=C(C)NC(OC)N(CC(=O)c2ccc(Cl)cc2)C1c1ccc(OC)cc1 (stereo not given): bin B
5. COC(=O)C1=C(C)N=C2Sc3ccccc3N2C1c1ccc(N(C)C)cc1 (stereo not given): bin C

Lab note: which band did CCOC(=O)C1=C(C)NC(OC)N(CC(=O)c2ccc(Cl)cc2)C1c1ccc(C)cc1 (stereo not given) land in?
bin B

Lab note: which band did CCOC(=O)C1=C(C)NC(OC)N(CC(=O)c2ccc(OC)cc2)C1c1ccc(C)cc1 (stereo not given) land in?
bin A

Lab note: which band did CCOC(=O)C1=C(C)NC(OC)N(CC(=O)c2ccc(Cl)cc2)C1c1ccc(Cl)cc1 (stereo not given) land in?
bin A

Just for reference, ChEMBL document CHEMBL3616444 is where these values come from.
